Test system: OVCAR-8 ovarian
Experiment: NCI-60 one-dose screen, 48 h (100 = growth as untreated, 0 = no growth, -100 = all killed)
Conditions: 10 µM unless noted
About 83,000 compounds went through this panel and 20% of them were active in at least one assay; those are over-represented in the sample as a whole. Active and inactive are the calls of the source. How the source made its calls: active means growth percent below 10; inactive means the rest.

compound: COc1ccc(C2=C(c3ccccc3)c3ccc(OC(C)=O)cc3OC2(C)C)cc1
growth: 125% (inactive)
--
compound: CC[C@H](CC[C@@H](C)[C@H]1CC[C@H]2[C@@H]3CC=C4C[C@@H](OCCc5nn[nH]n5)CC[C@]4(C)[C@H]3CC[C@]12C)C(C)C
growth: 108% (inactive)
--
compound: C(=N\Nc1ncc(-c2cc3cc4c(cc3o2)OCO4)s1)/c1c[nH]c2ccccc12
growth: -12.1% (active)
--
compound: COc1ccc(C(=O)c2cc(C)c(OC)c(C)c2)c(OC)c1N(C(=O)C(Cl)Cl)C(=O)C(Cl)Cl
growth: 16% (inactive)
--
compound: C=C(C)[C@H]1CC/C(C)=C/CC[C@]2(C)O[C@H]2CC/C(COC(=O)[C@@H](OC(C)=O)[C@H](NC(=O)c2ccccc2)c2ccccc2)=C\[C@@H]1O
growth: 93.9% (inactive)
--
compound: COc1cc2nc(-c3ccc(C(F)(F)F)cc3)cc(OCCN3CCCC3)c2cc1OC
growth: 91% (inactive)
--
compound: O=C1c2ccccc2C(=O)c2c(NCCN=Cc3ccccc3O)cccc21
growth: 21% (inactive)
--
compound: COc1ccc(C2CC(c3cccc(Nc4ccncc4)c3)=NN2c2ccccc2)cc1 (configuration not stated)
growth: 20.5% (inactive)
--
compound: COc1ccc(-c2cnc(N)nc2-c2ccc(OC)cc2O)cc1
growth: 89.5% (inactive)
--
compound: CSc1nnc2c(=O)n(C)c(=O)n(C)c2n1
growth: 106% (inactive)
--
compound: COc1cc(NCC(O)CN(CC(C)C)CC(C)C)c2nc(C)ccc2c1 (configuration not stated)
growth: 87.2% (inactive)
--
compound: COc1ccc(C(O)c2cc3c(N)c(C(=O)Nc4ccc(Cl)cc4)sc3nc2C)cc1 (configuration not stated)
growth: 30.6% (inactive)
--
compound: Cn1/c(=N/NC(N)=S)ccc2ccccc21
growth: 74.6% (inactive)
--
compound: Cc1cn(-c2cc(C(=O)Nc3cccc(C#Cc4cccc5[nH]nc(N)c45)c3)cc(C(F)(F)F)c2)cn1
growth: 48.8% (inactive)
--
compound: COc1ccc2c(c1)OC1=C(C(=O)OC1)C2c1cc(OC)c(OC)c(OC)c1 (configuration not stated)
growth: 21.1% (inactive)
--
compound: Clc1cc(Cl)cc(N2N=C(c3cccc(Nc4ccncc4)c3)CC2c2ccccc2)c1 (configuration not stated)
growth: 2.42% (active)
--
compound: CC(=O)[C@@H]1CC[C@]2(C(=O)n3ccnc3)CC[C@]3(C)[C@H](CC[C@@H]4[C@@]5(C)Cc6c([nH]c7ccccc67)C(C)(C)[C@@H]5CC[C@]43C)[C@@H]12
growth: 90.7% (inactive)

====

System: SNB-19 CNS
Test: NCI-60 one-dose screen, 48 h (100 = growth as untreated, 0 = no growth, -100 = all killed)
Conditions: 10 µM unless noted
About 83,000 compounds went through this panel and 20% of them were active in at least one assay; those are over-represented in the sample as a whole.
assayEndpoint: growth (%)

molecule: CC1(C)CC[C@]2(C(=O)NCC#CCN3CCOCC3)CC[C@]3(C)C(=CC[C@@H]4[C@@]5(C)Cc6c([nH]c7ccccc67)C(C)(C)[C@@H]5CC[C@]43C)[C@@H]2C1
experimentalSystem: SNB-19 CNS
assayEndpoint: growth
reportedMeasurement: 93.1
//
molecule: CCC(=O)c1ccc(O)c(OC)c1
experimentalSystem: SNB-19 CNS
assayEndpoint: growth
reportedMeasurement: 95.9
//
molecule: CCCCc1ccc(Nc2nnc(SCC(=O)NC(=O)NCC)s2)cc1
experimentalSystem: SNB-19 CNS
assayEndpoint: growth
reportedMeasurement: 119
//
molecule: Clc1ccc(N2N=C(c3cccc(Nc4ccncc4)c3)CC2c2ccccc2)cc1 (centres undefined)
experimentalSystem: SNB-19 CNS
assayEndpoint: growth
reportedMeasurement: 95.6
